- Measured On: Gag-Pol polyprotein (Human immunodeficiency virus type 1 group M subtype B (isolate HXB2), UniProt P04585)
- Assay Protocol: Inhibition Assay
Experimental Readout: IC50 (nM)

{"Given Smiles": "CCOCCN", "Meas Value": 4130}
{"Given Smiles": "COc1ccc(CN)cc1", "Meas Value": 3920}
{"Given Smiles": "CCOc1ccccc1C=O", "Meas Value": 1020}
{"Given Smiles": "NCc1ccc(Cl)c(Cl)c1", "Meas Value": 1340}
{"Given Smiles": "O=Cc1ccccc1OCC(=O)O", "Meas Value": 2030}
{"Given Smiles": "O=Cc1ccccc1C(F)(F)F", "Meas Value": 7860}
{"Given Smiles": "CC(=O)N[C@H](CCCCN)C(=O)O", "Meas Value": 1840}
{"Given Smiles": "CN", "Meas Value": 2700}
{"Given Smiles": "NCc1ccc(F)cc1", "Meas Value": 4050}
{"Given Smiles": "O=Cc1cccc2c1OCO2", "Meas Value": 3050}
{"Given Smiles": "CCOCCCN", "Meas Value": 2110}
{"Given Smiles": "NCc1cc(Cl)cc(Cl)c1", "Meas Value": 2470}
{"Given Smiles": "O=Cc1ccccc1OCc1ccccc1", "Meas Value": 1750}
{"Given Smiles": "NCC1CC1", "Meas Value": 3640}
